Hello, the source for this data is ChEMBL document CHEMBL4321849, in case you need it.

Assay: Plasma concentration in Sprague-Dawley rat at 100 ug/min/kg, iv infused into jugular vein for 15 mins
Assay type: ADME, organism-based
VALUE_TYPE: concentration at 0.25 h (µM)
Expressed in µM, but write only the number.

CCC[C@@H](NC(=O)c1ccc(-c2c(Cl)cccc2-c2nc3ccccc3[nH]2)c(C(=O)O)c1)c1ccccc1 (stereo in doubt; 15a) yielded concentration at 0.25 h of 4.4

---

Experiment: Plasma concentration in Sprague-Dawley rat at 1000 ug/min/kg, iv infused into jugular vein for 15 mins
Type: ADME, organism-based
VALUE_TYPE: concentration at 0.25 h (µM)
Expressed in µM, but write only the number.

CCC[C@@H](NC(=O)c1ccc(-c2c(Cl)cccc2-c2nc3ccccc3[nH]2)c(C(=O)O)c1)c1ccccc1 (stereo in doubt; 15a) yielded concentration at 0.25 h of 82

---

Target: Apelin receptor (Rattus norvegicus)
Sequence (Q9JHG3 whole entry): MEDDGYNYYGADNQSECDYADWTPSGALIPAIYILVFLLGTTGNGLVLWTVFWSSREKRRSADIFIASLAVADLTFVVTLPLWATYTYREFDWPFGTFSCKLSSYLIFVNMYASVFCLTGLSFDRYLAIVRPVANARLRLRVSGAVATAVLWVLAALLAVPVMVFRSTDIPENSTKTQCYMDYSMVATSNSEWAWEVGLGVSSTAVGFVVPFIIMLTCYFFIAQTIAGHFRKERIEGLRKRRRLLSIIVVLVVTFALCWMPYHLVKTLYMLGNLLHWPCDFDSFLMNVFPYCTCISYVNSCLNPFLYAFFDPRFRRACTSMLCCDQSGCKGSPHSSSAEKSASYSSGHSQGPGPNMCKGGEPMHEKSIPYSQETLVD
Assay: Agonist activity at rat APJ-R expressed in HEK293 cells assessed as inhibition of forskolin- stimulated cAMP accumulation incubated for 30 mins by HTRF assay
VALUE_TYPE: pEC50
Quick note: pEC50 values are minus log10 of concentrations in mol/L.

Look over these answered cases.
[[record]]
compound = "CCC[C@@H](NC(=O)c1ccc(-c2c(Cl)cccc2-c2nc3ccccc3[nH]2)c(C(=O)O)c1)c1ccccc1 (stereo in doubt; 15b)"
numeric_readout = 7.37

[[record]]
compound = "CCC[C@@H](NC(=O)c1ccc(-c2c(Cl)cccc2-c2nc3cc(OC)ccc3[nH]2)c(C(=O)O)c1)c1ccccc1"
numeric_readout = 9.92


We now examine a further compound.
Measured pEC50 for this entry CCC[C@@H](NC(=O)c1ccc(-c2c(Cl)cccc2-c2nc3ccccc3[nH]2)c(C(=O)O)c1)c1ccccc1 (stereo in doubt; 15a) on Apelin receptor (Rattus norvegicus): 9.92

---

Assay: Plasma concentration in Sprague-Dawley rat at 10 ug/min/kg, iv infused into jugular vein for 15 mins
Format: ADME, organism-based
VALUE_TYPE: concentration at 0.25 h (nM)
Expressed in nM, but write only the number.

CCC[C@@H](NC(=O)c1ccc(-c2c(Cl)cccc2-c2nc3ccccc3[nH]2)c(C(=O)O)c1)c1ccccc1 (stereo in doubt; 15a) yielded concentration at 0.25 h of 440

---

This section presents compounds with their documented solubility values.
Assay: Solubility in pH 7.4 buffer using amorphous form
Format: physicochemical
Form entry: enter the amount, then its unit.

[[record]]
compound = "CCC[C@@H](NC(=O)c1ccc(-c2c(Cl)cccc2-c2nc3cc(OC)ccc3[nH]2)c(C(=O)O)c1)c1ccccc1"
result = "180 µg/mL"


CCC[C@@H](NC(=O)c1ccc(-c2c(Cl)cccc2-c2nc3ccccc3[nH]2)c(C(=O)O)c1)c1ccccc1 (stereo in doubt; 15a) yielded solubility of 660 µg/mL
